# ASSAY_PROTOCOL: Apparent volume of distribution with respect to bioavailability in Swiss Webster mouse at 10 mg/kg, po
# Type: ADME, organism-based
# CONDITION_DESCRIPTION: in vivo, read-out: Vc/F
MEASURED_PARAMETER: Vd/F

Look up Vd/F for this molecule: CC1(C)CC(=O)c2c(C(F)(F)F)nn(-c3ccc(C(N)=O)c(N[C@H]4CC[C@H](OC(=O)CN)CC4)c3)c2C1.CS(=O)(=O)O 8.93 L/kg

* * *

# ASSAY_PROTOCOL: Cmax in Swiss Webster mouse at 10 mg/kg, po
# Type: ADME, organism-based
# Design: dose 10 mg/kg, route oral
# CONDITION_DESCRIPTION: in vivo
MEASURED_PARAMETER: Cmax (µg/mL)
Give bare numbers, in µg/mL.

What Cmax value was documented for this compound, CC1(C)CC(=O)c2c(C(F)(F)F)nn(-c3ccc(C(N)=O)c(N[C@H]4CC[C@H](OC(=O)CN)CC4)c3)c2C1.CS(=O)(=O)O ? 0.747

* * *

# ASSAY_PROTOCOL: Cmax in Swiss Webster mouse at 50 mg/kg, po
# Format: ADME, organism-based
# Parameters: dose 50 mg/kg, route oral
# CONDITION_DESCRIPTION: in vivo
MEASURED_PARAMETER: Cmax (ng/mL)
Give bare numbers, in ng/mL.

Value lookup for Cmax; key = CC1(C)CC(=O)c2c(C(F)(F)F)nn(-c3ccc(C(N)=O)c(N[C@H]4CC[C@H](OC(=O)CN)CC4)c3)c2C1.CS(=O)(=O)O 4020

* * *

# ASSAY_PROTOCOL: Aqueous solubility in phosphate-buffered saline at pH 7.4
# Type: physicochemical
MEASURED_PARAMETER: solubility (µM)
One number for each entry, in µM.

Recorded solubility for CC1(C)CC(=O)c2c(C(F)(F)F)nn(-c3ccc(C(N)=O)c(N[C@H]4CC[C@H](O)CC4)c3)c2C1 [SNX-2112] , please? 6

* * *

# ASSAY_PROTOCOL: Apparent volume of distribution with respect to bioavailability in Swiss Webster mouse at 50 mg/kg, po
# Assay type: ADME, organism-based
# CONDITION_DESCRIPTION: in vivo, read-out: Vc/F
MEASURED_PARAMETER: Vd/F
A bare number is not enough; add the unit after it.

Recorded Vd/F of CC1(C)CC(=O)c2c(C(F)(F)F)nn(-c3ccc(C(N)=O)c(N[C@H]4CC[C@H](OC(=O)CN)CC4)c3)c2C1.CS(=O)(=O)O , please. 9.55 L/kg

* * *

# ASSAY_PROTOCOL: Metabolic stability in human liver S9 fraction assessed as drug remaining at 1 uM after 1 hr
# Format: ADME, subcellular
# CONDITION_DESCRIPTION: read-out: Stability
MEASURED_PARAMETER: remaining at 1 h, 1 µM (%)
One number for each entry, in %.

Look up remaining at 1 h, 1 µM for this compound: CC1(C)CC(=O)c2c(C(F)(F)F)nn(-c3ccc(C(N)=O)c(N[C@H]4CC[C@H](O)CC4)c3)c2C1 88

* * *

# ASSAY_PROTOCOL: Apparent oral clearance in Swiss Webster mouse at 25 mg/kg, po
# Type: ADME, organism-based
# Design: dose 25 mg/kg, route oral
# CONDITION_DESCRIPTION: in vivo
MEASURED_PARAMETER: CL/F (mL/min/kg)
Numbers only, in mL/min/kg.

Give the measured CL/F of CC1(C)CC(=O)c2c(C(F)(F)F)nn(-c3ccc(C(N)=O)c(N[C@H]4CC[C@H](OC(=O)CN)CC4)c3)c2C1.CS(=O)(=O)O . 37.9

This collection of values is drawn from ChEMBL document CHEMBL1158466.
